Data provenance: paper PMC6572114

EXPERIMENTAL_ENDPOINT: melting point

* O=C(Cn1cc(-c2ccccc2)nn1)NCc1cnc2scc(-c3ccc(Br)cc3)n12 [12b] | 251.5 to 252.5 °C (dec.)
* N#Cc1ccc(-c2cn(Cc3cnc4scc(-c5ccc(Br)cc5)n34)nn2)cc1 [11e] | 190 to 191 °C (dec.)
* Nc1ccc(-c2cn(CC(=O)NCc3cnc4scc(-c5ccc(Br)cc5)n34)nn2)cc1 [12d] | 217 to 218 °C (dec.)
* O=C(Cn1cc(C2(O)CCCCC2)nn1)NCc1cnc2scc(-c3ccc(Br)cc3)n12 [12h] | 165 to 166 °C
* Brc1ccc(-c2csc3ncc(Cn4cc(C5CC5)nn4)n23)cc1 [11g] | 145.5 to 146.5 °C
* N#CCc1ccc(-c2cn(CC(=O)NCc3cnc4scc(-c5ccc(Br)cc5)n34)nn2)cc1 [12f] | 231 to 231.5 °C
* OC1(c2cn(Cc3cnc4scc(-c5ccc(Br)cc5)n34)nn2)CCCCC1 [11h] | 163.5 to 164.5 °C (dec.)
* N#CCc1ccc(-c2cn(Cc3cnc4scc(-c5ccc(Br)cc5)n34)nn2)cc1 [11f] | 121.5 to 122.5 °C
* Brc1ccc(-c2csc3ncc(Cn4cc(-c5ccccc5)nn4)n23)cc1 [11b] | 199 to 199.5 °C (dec.)
* O=C(Cn1cc(Cc2ccccc2)nn1)NCc1cnc2scc(-c3ccc(Br)cc3)n12 [12a] | 177 to 177.5 °C
* Nc1ccc(-c2cn(Cc3cnc4scc(-c5ccc(Br)cc5)n34)nn2)cc1 [11d] | 117 to 118 °C (dec.)
* COc1ccc(-c2cn(CC(=O)NCc3cnc4scc(-c5ccc(Br)cc5)n34)nn2)cc1 [12c] | 183 to 184 °C
* O=C(O)CCc1cn(CC(=O)NCc2cnc3scc(-c4ccc(Br)cc4)n23)nn1 [12j] | 153 to 154 °C (dec.)
* N#Cc1ccc(-c2cn(CC(=O)NCc3cnc4scc(-c5ccc(Br)cc5)n34)nn2)cc1 [12e] | 267 to 267.5 °C (dec.)
* Brc1ccc(-c2csc3ncc(Cn4cc(Cc5ccccc5)nn4)n23)cc1 [11a] | 106.5 to 107.5 °C
* O=C(Cn1cc(CCCO)nn1)NCc1cnc2scc(-c3ccc(Br)cc3)n12 [12i] | 169 to 170 °C (dec.)
* O=C(O)CCc1cn(Cc2cnc3scc(-c4ccc(Br)cc4)n23)nn1 [11j] | 148 to 148.5 °C (dec.)
* N#CCCCCc1cn(CC(=O)NCc2cnc3scc(-c4ccc(Br)cc4)n23)nn1 [12k] | 179.5 to 180.5 °C
* O=C(Cn1cc(C2CC2)nn1)NCc1cnc2scc(-c3ccc(Br)cc3)n12 [12g] | 225 to 225.5 °C (dec.)
* COc1ccc(-c2cn(Cc3cnc4scc(-c5ccc(Br)cc5)n34)nn2)cc1 [11c] | 118 to 119 °C (dec.)
